IC50 values, listed per item
test.description: Inhibition of chymotrypsin-like activity of 20S proteasome in rabbit erythrocytes using Suc-LLVY-AMC as substrate preincubated for 15 mins measured after 45 mins by fluorescence assay
Format: cell-based, Oryctolagus cuniculus
condition: read-out: IC50

molecule | unit.label | IC50
C[C@@]12OC(=O)[C@]1([C@@H](O)[C@@H]1C=CCCC1)NC(=O)[C@@H]2CCCl | µM | 0.0026
CC1(Cc2ccccc2)OC(=O)c2c1ccn(CCc1ccc(Cl)cc1)c2=O (racemic) | µM | 22.5

###

test.description: Inhibition of caspase-like activity of 20S proteasome in rabbit erythrocytes using Z-LLE-betaNA as substrate preincubated for 15 mins measured after 45 mins by fluorescence assay
Assay type: cell-based, Oryctolagus cuniculus
condition: read-out: IC50
reported.property: IC50 (µM)

compound | reported.property | readout.value
O=C1OC2(CCCCC2)c2ccn(CC(O)c3ccccc3)c(=O)c21 (stereo not given) | IC50 | 11.9
NS(=O)(=O)c1ccc(-n2ccc3c(c2=O)C(=O)OC32CCCCC2)cc1 | IC50 | 6.6
CC(C)CC1(C)OC(=O)c2c1ccn(-c1ccc(S(N)(=O)=O)cc1)c2=O (racemic) | IC50 | 4.6
CCN(CC)CC(O)Cn1ccc2c(c1=O)C(=O)OC21CCOC(C)(C)C1 (stereo not given) | IC50 | 4.1
CC1(CCc2ccccc2)OC(=O)c2c1ccn(CCCN1CCOCC1)c2=O (racemic) | IC50 | 19.6
CC(=O)NS(=O)(=O)c1ccc(-n2ccc3c(c2=O)C(=O)OC3(C)C)cc1 | IC50 | 5.7
CC(C)CC1(C)OC(=O)c2c1ccn(CCc1ccc(Cl)cc1)c2=O (racemic) | IC50 | 12.7
CC1(C)OC(=O)c2c1ccn(-c1ccc(S(N)(=O)=O)cc1)c2=O | IC50 | 6.1
CCN(CC)CC(O)Cn1ccc2c(c1=O)C(=O)OC2(C)CCc1ccccc1 (mixture of isomers) | IC50 | 2.5
CC(C)CC1(C)OC(=O)c2c1ccn(CC(O)c1ccccc1)c2=O (stereo not given) | IC50 | 4.8

Data provenance: ChEMBL document CHEMBL2375248
